The values you see were collected from patent US20140135310A1.

Consider the following molecules and their measured D3 ag [%] readings.
- Target Or Test System: D3 dopaminergic receptors (Homo sapiens, UniProt P35462)
- Sequence (P35462 whole entry): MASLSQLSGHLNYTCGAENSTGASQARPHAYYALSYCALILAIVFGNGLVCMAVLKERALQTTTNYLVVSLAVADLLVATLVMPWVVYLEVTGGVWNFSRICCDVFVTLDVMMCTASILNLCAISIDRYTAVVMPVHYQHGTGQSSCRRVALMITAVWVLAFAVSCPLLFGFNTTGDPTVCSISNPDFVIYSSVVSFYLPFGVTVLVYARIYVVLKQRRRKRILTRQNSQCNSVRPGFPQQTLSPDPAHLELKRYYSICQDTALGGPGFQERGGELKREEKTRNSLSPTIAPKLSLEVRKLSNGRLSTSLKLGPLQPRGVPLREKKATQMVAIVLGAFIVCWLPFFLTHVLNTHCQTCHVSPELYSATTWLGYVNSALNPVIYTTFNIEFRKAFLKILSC
- Assay Info: Cellular functional assay, D3 dopaminergic receptors
- Type: cell-based
- Condition Set: agonism, D3 (h), CHO cells, percent of control specific agonist response (0.3 μM dopamine for control)
Numeric answer only, unit % assumed.

Record excerpt, results attached:
{"columns": ["Molecule", "Target Or Test System", "Reported Metric", "Reading Unit", "Experimental Result"],
 "data": [
  ["COc1ccc2cc(S(=O)(=O)NC3CCN(CCCc4noc5cc(F)ccc45)C3)ccc2c1 (stereo not shown) [Compound 227]", "D3 dopaminergic receptors (Homo sapiens, UniProt P35462)", "D3 ag [%]", "%", "−6"],
  ["O=S(=O)(N[C@@H]1CCN(CCCc2noc3cc(F)ccc23)C1)c1ccc2ccccc2c1 [Compound 206]", "D3 dopaminergic receptors (Homo sapiens, UniProt P35462)", "D3 ag [%]", "%", 3],
  ["O=S(=O)(NC1CCN(CCOc2cccc3[nH]ccc23)CC1)c1ccccc1 [Compound 55]", "D3 dopaminergic receptors (Homo sapiens, UniProt P35462)", "D3 ag [%]", "%", 82],
  ["Cc1c(S(=O)(=O)N[C@@H]2CCN(CCCc3noc4cc(F)ccc34)C2)sc2ccc(Cl)cc12 [Compound 204]", "D3 dopaminergic receptors (Homo sapiens, UniProt P35462)", "D3 ag [%]", "%", "−8"]
]}

Prompt: Give its D3 ag [%] value. Item: O=S(=O)(NC1CCN(CCCc2noc3cc(F)ccc23)C1)c1ccc2cc(Cl)ccc2c1 (stereo not shown) [Compound 23]
Completion: −10

Prompt: So what does the record say about D3 ag [%] for Cc1cccc(S(=O)(=O)NC2CCN(CCCc3c[nH]c4ccc(F)cc34)C2)c1 (stereo not shown) [Compound 78] ?
Completion: 89

Prompt: I have this molecule here, O=S(=O)(N[C@@H]1CCN(CCCc2noc3cc(F)ccc23)C1)c1ccc2cc(Cl)ccc2c1 [Compound 200] , and I need its recorded D3 ag [%].
Completion: −1

Prompt: Could you tell me which D3 ag [%] is on file for Cc1ccc2sc(S(=O)(=O)N[C@@H]3CCN(CCCc4noc5cc(F)ccc45)C3)cc2c1 [Compound 228] ?
Completion: −15

Prompt: Data request, read-out D3 ag [%], for Cc1c(S(=O)(=O)N[C@H]2CCN(CCCc3noc4cc(F)ccc34)C2)sc2ccc(F)cc12 [Compound 203]
Completion: 11

Prompt: Please report the recorded D3 ag [%] for O=S(=O)(NC1CN(CCOc2cccc3[nH]ccc23)C1)c1ccc2ccccc2c1 [Compound 50] .
Completion: 85

Prompt: Need D3 ag [%] of COc1ccc2cc(S(=O)(=O)N[C@H]3CCN(CCCc4noc5cc(F)ccc45)C3)ccc2c1 [Compound 231] , thanks.
Completion: −6

Prompt: Report D3 ag [%] for Cc1ccc2sc(S(=O)(=O)NC3CCN(CCCc4noc5cc(F)ccc45)C3)cc2c1 (stereo not shown) [Compound 226] please.
Completion: −26

Prompt: For Cc1c(S(=O)(=O)NC2CCN(CCCc3noc4cc(F)ccc34)C2)sc2ccc(F)cc12 (stereo not shown) [Compound 28] , what is its reported D3 ag [%]?
Completion: −8

Prompt: Value lookup for D3 ag [%]; key = O=S(=O)(N[C@@H]1CCN(CCCc2noc3cc(F)ccc23)C1)c1cc2ccc(Cl)cc2s1 [Compound 198]
Completion: −17

Prompt: Look at this molecule and give its reported D3 ag [%]. O=S(=O)(NC1CCN(CCCc2c[nH]c3ccc(F)cc23)C1)c1ccc2ccccc2c1 (stereo not shown) [Compound 80]
Completion: 91

Prompt: Item under review: COc1ccc2cc(S(=O)(=O)N[C@@H]3CCN(CCCc4noc5cc(F)ccc45)C3)ccc2c1 [Compound 230] . Reported D3 ag [%]?
Completion: 0
